The values you see were collected from the supplement of paper PMC10567573.

B1: CAMK2A (parent)
chain: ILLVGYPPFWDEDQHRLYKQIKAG

variants of: B1; experiment: protein stability index of a GFP-peptide fusion (GPS, HEK-293T) (PSI 1-6); higher = more stable; conditions: c terminus: a fixed tail appended;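 note: lentivirally expressed fusions sorted by FACS into six bins by GFP to DsRed ratio, PSI derived from sequencing read proportions per bin multiplied by bin number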
measured_endpoint: protein stability index
The reply should be a number, written without any unit.

Answered cases to consult:
mut: W10A
value: 1.73
//
mut: K19S
value: 2.63
//
mut: E12D
value: 2.27

Qu. Specify reported protein stability index for the variant shown: "V4L"
Ans. 2.66

Qu. Specify reported protein stability index for the variant shown: "G5P"
Ans. 3.17

Qu. Specify reported protein stability index for the variant shown: "L17Y"
Ans. 2.38

Qu. Specify reported protein stability index for the variant shown: "K22N"
Ans. 2.6
